binders and their reported Optical Density (OD; 450 nm)
target: SARS-CoV-2 Spike (S) trimer (SARS-CoV-2), P0DTC2; experiment: ELISA, S trimer coated, 1:50 dilution; settings: remark: other sources report otherwise
Quick note: give the figure in OD450, leave out the unit.

AB-009108 (antibody, V domains shown) VH: QVQLQESGPGLVKPSETLALTCTVSGDSIINNNFYWGWLRQPPGQGLEWIGSLFHTGSAYYNSSLKSRVRSSVDTARNQISLRLSSVTAADTAVYYCARVNIVSVPAPPGAIEGWFDPWGQGTRVTVSP VL: SYELTQPPSVSVSLGQTARISCSGDALPTKYVHWYQQKAGQAPVVVIFRDTERPSEIPERFSGSSSGTTVTLTISGVQAEDEADYYCQSVDGSGFYVFGSGTKVTVL	0.28
AB-009627 (antibody, V domains shown) VH: QVQLQQWGAGLLKPSETLSLTCAVYGGSFSGYYWSWIRQPPGKGLEWIGEINHSGSTNYNPSLKSRVTISVDTSKNQFSLKLSSVTAADTAVFYCARGGYSSSWYGEKYWFDPWGQGTLVTVSS VL: QSALTQPRSVSGSPGQSVTISCTGTSSDVGGYNYVSWYQQHPGKAPKLMIYDVSKRPSGVPDRFSGSKSGNTASLTISGLQAEDEADYYCCSYAGSPYVFGTGTKVTVL	0.823

Next:
# input # query: Optical Density (OD; 450 nm) of entry AB-009244 (antibody, V domains shown) VH: EVQLVESGGGLVQPGGSLRLSCAASGFAFNTYGINWVRQAPGKGLEWVSFISSRSTTIHYADSVRGRFTISRDNAKNSLYLQMNNLRDEDTAVYYCARDLLIWFGETGAFDIWGQGTMVTVSS VL: EVVMTQSPATLSVSSGERVTLSCRASQSVSNNLAWYQQKPGQAPRLLIYGASTRATGFPARFSGSGSGTEFTLTISSLQSEDFAVYYCQQYNIWPPGTFGQGTKLEIK
# output 0.239
